// reported Plant response rating, Foxtail, Giant for each item listed
- Tested on: giant foxtail (Setaria faberii)
- protocol details: Test B preemergence
- Format: in vivo
- stated conditions: Preemergence, Rate 500 g/ha; scale 0 to 100, 0 no effect, 100 complete control

Task item: Give recorded Plant response rating, Foxtail, Giant. CCOc1cccc(N2CCC(n3ccc(C(C)(C)C)n3)C2=O)c1 (stereo not drawn)
Reply: 100

Task item: Give recorded Plant response rating, Foxtail, Giant. CCOC(=O)c1cccc(N2CCC(n3ccc(C(C)(C)C)n3)C2=O)c1 (stereo not drawn)
Reply: 100

Task item: Give recorded Plant response rating, Foxtail, Giant. CCCOc1cc(N2CCC(n3ccc(C(C)(C)C)n3)C2=O)ccc1C (stereo not drawn)
Reply: 40

Task item: Give recorded Plant response rating, Foxtail, Giant. CC(C)c1ccn(C2OCN(c3cccc(OC(F)(F)F)c3)C2=O)n1 (stereo not drawn)
Reply: 70

Task item: Give recorded Plant response rating, Foxtail, Giant. O=C1C(n2ccc(C3CCC3)n2)SCN1c1cccc(OC(F)(F)F)c1 (stereo not drawn)
Reply: 100

Task item: Give recorded Plant response rating, Foxtail, Giant. Cc1ccc(N2CCC(n3ccc(C(C)(C)C)n3)C2=O)cc1OCCI (stereo not drawn)
Reply: 20

Task item: Give recorded Plant response rating, Foxtail, Giant. Cc1c(Cl)cc(N2CCC(n3ccc(C(C)(C)C)n3)C2=O)cc1Cl (stereo not drawn)
Reply: 60

Task item: Give recorded Plant response rating, Foxtail, Giant. CCCCC(CCCC)c1ccn(C2OCN(c3cccc(OC(F)(F)F)c3)C2=O)n1 (stereo not drawn)
Reply: 0

Task item: Give recorded Plant response rating, Foxtail, Giant. Cc1cc(C)nc(N2CCC(n3ccc(C(C)(C)C)n3)C2=O)c1 (stereo not drawn)
Reply: 100

Task item: Give recorded Plant response rating, Foxtail, Giant. CCC(CC)c1ccn(C2OCN(c3cccc(OC(F)F)c3)C2=O)n1 (stereo not drawn)
Reply: 100

Task item: Give recorded Plant response rating, Foxtail, Giant. CC(C)(C)c1ccn(C2CCN(c3ccc4c(c3)CCC4)C2=O)n1 (stereo not drawn)
Reply: 20

Task item: Give recorded Plant response rating, Foxtail, Giant. CC1(c2ccn(C3OCN(c4cccc(OC(F)(F)F)c4)C3=O)n2)CC1 (stereo not drawn)
Reply: 0

Task item: Give recorded Plant response rating, Foxtail, Giant. Cc1cc(N2CCC(n3ccc(C(C)(C)C)n3)C2=O)cc(Br)c1C (stereo not drawn)
Reply: 0

Task item: Give recorded Plant response rating, Foxtail, Giant. CCCC(C)c1ccn(C2CCN(c3ccc(Cl)c(OC)c3)C2=O)n1 (stereo not drawn)
Reply: 100

Task item: Give recorded Plant response rating, Foxtail, Giant. CCCC(C)c1ccn(C2CCN(c3cccc(C(F)(F)F)c3)C2=O)n1 (stereo not drawn)
Reply: 70

Task item: Give recorded Plant response rating, Foxtail, Giant. O=C1C(n2ccc(C3CCC3)n2)SCN1c1cccc(C(F)(F)F)c1 (stereo not drawn)
Reply: 100

Task item: Give recorded Plant response rating, Foxtail, Giant. CC(C)(C)c1ccn(C2CCN(c3cccc(C(F)(F)F)c3)C2=S)n1 (stereo not drawn)
Reply: 100

Task item: Give recorded Plant response rating, Foxtail, Giant. CC(C)(C)c1ccn(C2OCN(c3cccc(OC(F)F)c3)C2=O)n1 (stereo not drawn)
Reply: 100

Task item: Give recorded Plant response rating, Foxtail, Giant. CCC(C)Oc1ccn(C2CCN(c3cccc(C(F)(F)F)c3)C2=O)n1 (stereo not drawn)
Reply: 70
